meta.source: patent US20090239887A1

The entries below are paired with their reported IC50 at 6 days.
# METHOD SUMMARY: Cytotoxicity in mitogen stimulated uninfected human PBM cells (trypan blue exclusion)
# Assay type: cell-based

COMPOUND: Nc1nc(=O)n(C2CSC(CO)O2)cc1F (single isomer, unassigned; (-)) [DLS-058 (−)]
IC50 at 6 days: > 100 µM
//
COMPOUND: Nc1nc(=O)n(C2CSC(CO)O2)cc1F (racemic) [DLS-022]
IC50 at 6 days: > 100 µM

====

# METHOD SUMMARY: Egress of radiolabeled (±)-FTC from human PBM cells
# Assay type: in vitro ADME
# RUN PARAMETERS: human PBM cells, after 24 hour pulse with 10 μM; read-out: intracellular half-life (converted)

MOLECULE: Nc1nc(=O)n(C2CSC(COP(=O)(O)OP(=O)(O)OP(=O)(O)O)O2)cc1F (racemic) [FTC-triphosphate]
half-life at 10 μM: ~12 h
